Data provenance: ChEMBL document CHEMBL1629610

Experiment: Selectivity index, ratio of CC50 for human MOLT4 cells to EC50 for Human herpesvirus 6B Z29
Type: toxicity, cell-based, MOLT-4
Settings: read-out: Ratio CC50/EC50
Experimental readout: selectivity ratio
Just the number, please.

Ask: Which selectivity ratio reading was recorded for the compound Nc1cc2c(=O)c(C(=O)O)cn(C3CC3)c2cc1N1CCN(c2ccccn2)CC1 ?
Reply: 7

* * *

Assay: Selectivity index, ratio of CC50 for mouse NIH 3T3 cells to EC50 for Murine cytomegalovirus
Assay type: toxicity, cell-based, NIH3T3
Conditions: read-out: Ratio CC50/EC50
Experimental readout: selectivity ratio
Just the number, please.

Ask: Which selectivity ratio reading was recorded for the compound Nc1cc2c(=O)c(C(=O)O)cn(C3CC3)c2cc1N1CCN(c2ccccn2)CC1 ?
Reply: 25

* * *

Experiment: Cytotoxicity against human HSB2 cells by MTT assay
Format: cell-based, CCRF-HSB-2
Experimental readout: CC50 (µM)
Output spec: scalar in µM, unitless text.

Ask: Which CC50 reading was recorded for the molecule Nc1cc2c(=O)c(C(=O)O)cn(C3CC3)c2cc1N1CCN(c2ccccn2)CC1 ?
Reply: 32

* * *

Experiment: Selectivity index, ratio of CC50 for human HSB-2 cells to EC50 for Human herpesvirus 6A GS
Type: toxicity, cell-based
Details: read-out: Ratio CC50/EC50
Experimental readout: selectivity ratio
Just the number, please.

Ask: Which selectivity ratio reading was recorded for the compound Nc1cc2c(=O)c(C(=O)O)cn(C3CC3)c2cc1N1CCN(c2ccccn2)CC1 ?
Reply: 6

* * *

Assay: Antiviral activity against Human herpesvirus 6A GS infected in human HSB-2 cells assessed as inhibition of virus DNA replication after 12 days by quantitative real time PCR
Format: functional, cell-based, Human herpesvirus 6 (strain GS)
Settings: Human betaherpesvirus 6A, HSB2, 288 h
Experimental readout: pEC50
Scale: negative log10 of molar concentration, which is what pEC50 denotes.

Ask: Which pEC50 reading was recorded for the compound Nc1cc2c(=O)c(C(=O)O)cn(C3CC3)c2cc1N1CCN(c2ccccn2)CC1 ?
Reply: 5.29

* * *

Experiment: Antiviral activity against Murine cytomegalovirus Smith infected in mouse NIH-3T3 cells assessed as inhibition of virus DNA replication after 12 days by plaque reduction assay
Type: functional, cell-based, Murine cytomegalovirus (strain Smith)
Details: Murid betaherpesvirus 1, NIH3T3, 288 h
Experimental readout: pEC50
Scale: negative log10 of molar concentration, which is what pEC50 denotes.

Ask: Which pEC50 reading was recorded for the compound Nc1cc2c(=O)c(C(=O)O)cn(C3CC3)c2cc1N1CCN(c2ccccn2)CC1 ?
Reply: 4.97

* * *

Experiment: Selectivity index, ratio of CC50 for human BC-3 cells to EC50 for Human herpesvirus 8
Format: toxicity, cell-based
Conditions: read-out: Ratio CC50/EC50
Experimental readout: selectivity ratio
Just the number, please.

Ask: Which selectivity ratio reading was recorded for the compound Nc1cc2c(=O)c(C(=O)O)cn(C3CC3)c2cc1N1CCN(c2ccccn2)CC1 ?
Reply: 3
